# EXPERIMENTAL TARGET: T1, cyno activated protein C (cyno (monkey))
# T1 construct: also called cyno aPC; cyno APC
# EXPERIMENT DESCRIPTION: SPR (Biacore), 1:1 binding model
Each item that follows carries a reported koff.
Supply the numeric figure in s⁻¹, leaving out any unit text.

# BINDER, koff (s⁻¹)
measured = [
    ("Hu1573-2 (antibody, V domains shown, Humanized IgG, human gamma 1 / kappa constant regions by vectors pCP-hCg1 and pCP-hck; also called H1573VH.1A + H1573Vk.2C) VH: EVQLVESGGGLVQPGGSLRLSCAASGFTFSNYYLNWVRQAPGKGLEWVGDIRLKSNNYEKHYAESVKGRFTISRDDSKNSLYLQMNSLKTEDTAVYYCIREGDYFDYWGQGTTVTVSS VL: DIVLTQTPLSLSVTPGQPASISCRASESVDSFGATFMHWYLQKPGQPPQLLIYLASNLESGVPDRFSGSGSRTDFTLKISRVEAEDVGVYYCQQNNEDPYTFGQGTKLEIKR", 0.00384),
    ("Hu1573-1 (antibody, V domains shown, Humanized IgG, human gamma 1 / kappa constant regions by vectors pCP-hCg1 and pCP-hck; also called H1573VH.1 + H1573Vk.2C) VH: EVQLVESGGGLVQPGGSLRLSCAASGFTFSNYYLNWVRQAPGKGLEWVGDIRLKSNNYEKHYAESVKGRFTISRDDSKNSLYLQMNSLKTEDTAVYYCAREGDYFDYWGQGTTVTVSS VL: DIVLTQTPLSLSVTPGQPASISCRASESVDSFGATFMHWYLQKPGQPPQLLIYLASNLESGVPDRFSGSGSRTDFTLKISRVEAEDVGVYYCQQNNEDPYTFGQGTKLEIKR", 0.00402),
    ("Hu1573-9 (antibody, V domains shown, Humanized IgG, human gamma 1 / kappa constant regions by vectors pCP-hCg1 and pCP-hck; also called H1573VH.1D + H1573Vk.2) VH: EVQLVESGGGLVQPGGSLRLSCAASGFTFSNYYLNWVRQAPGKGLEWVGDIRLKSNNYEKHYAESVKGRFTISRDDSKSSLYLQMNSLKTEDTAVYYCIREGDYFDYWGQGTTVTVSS VL: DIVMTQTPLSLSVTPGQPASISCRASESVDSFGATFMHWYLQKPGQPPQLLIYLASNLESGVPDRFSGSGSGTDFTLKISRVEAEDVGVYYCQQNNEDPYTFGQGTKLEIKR", 0.00724),
    ("Hu1573-4 (antibody, V domains shown, Humanized IgG, human gamma 1 / kappa constant regions by vectors pCP-hCg1 and pCP-hck; also called H1573VH.1B + H1573Vk.2A) VH: EVQLVESGGGLVQPGGSLRLSCAASGFTFSNYYLNWVRQAPGKGLEWVGDIRLKSNNYEKHYAESVKGRFTISRDDSKNSVYLQMNSLKTEDTAVYYCIREGDYFDYWGQGTTVTVSS VL: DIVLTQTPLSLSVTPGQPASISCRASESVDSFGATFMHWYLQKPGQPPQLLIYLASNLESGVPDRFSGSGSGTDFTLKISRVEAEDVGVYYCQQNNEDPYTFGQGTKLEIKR", 0.0105),
    ("Hu1573-13 (antibody, V domains shown, Humanized IgG, human gamma 1 / kappa constant regions by vectors pCP-hCg1 and pCP-hck; also called H1573VH.1E + H1573Vk.2A) VH: EVQLVESGGGLVQPGGSLRLSCAASGFTFSNYYLNWVRQAPGKGLEWVADIRLKSNNYEKHYAESVKGRFTISRDDSKNSVYLQMNSLKTEDTAVYYCIREGDYFDYWGQGTTVTVSS VL: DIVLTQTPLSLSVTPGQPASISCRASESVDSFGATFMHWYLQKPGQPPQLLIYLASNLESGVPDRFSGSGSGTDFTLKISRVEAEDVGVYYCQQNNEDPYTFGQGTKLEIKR", 0.00343),
    ("Hu1573-7 (antibody, V domains shown, Humanized IgG, human gamma 1 / kappa constant regions by vectors pCP-hCg1 and pCP-hck; also called H1573VH.1C + H1573Vk.2A) VH: EVQLVESGGGLVQPGGSLRLSCAASGFTFSNYYLNWVRQAPGKGLEWVADIRLKSNNYEKHYAESVKGRFTISRDDSKNSLYLQMNSLKTEDTAVYYCIREGDYFDYWGQGTTVTVSS VL: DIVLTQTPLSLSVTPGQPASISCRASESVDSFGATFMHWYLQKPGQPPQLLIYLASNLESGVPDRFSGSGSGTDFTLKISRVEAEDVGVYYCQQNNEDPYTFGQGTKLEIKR", 0.00471),
]

Request: Tell me measured koff for Hu1573-11 (antibody, V domains shown, Humanized IgG, human gamma 1 / kappa constant regions by vectors pCP-hCg1 and pCP-hck; also called H1573VH.1D + H1573Vk.2B) VH: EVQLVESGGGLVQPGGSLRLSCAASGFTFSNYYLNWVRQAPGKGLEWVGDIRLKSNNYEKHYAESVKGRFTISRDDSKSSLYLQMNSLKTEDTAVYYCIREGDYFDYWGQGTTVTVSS VL: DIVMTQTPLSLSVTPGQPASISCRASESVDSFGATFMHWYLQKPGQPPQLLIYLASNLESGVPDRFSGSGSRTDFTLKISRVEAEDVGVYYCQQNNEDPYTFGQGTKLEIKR please.
Response: 0.0042

Data origin, for the record: patent USRE49099
